system: NCI-H520 (Squamous Cell Lung Carcinoma); assay: Bliss excess, mean over the matrix (fraction); higher = more synergy;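 also: after 72 h of two-drug dosing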
Kindly supply the reported Bliss excess values for the records listed here.
Answers are plain numbers.

Answered examples (2):
INSERT INTO measurements (compound, parameter, experimental_value) VALUES
  ('COc1cccc(OCCCN)c1-c1cc(Nc2cnc(C#N)cn2)n[nH]1 [Prexasertib] + CCc1c2c(nc3ccc(O)cc13)-c1cc3c(c(=O)n1C2)COC(=O)[C@]3(O)CC [SN-38] (first compound max 1 µM, 7x7, partner max 0.3 µM)', 'Bliss excess', -0.0483),
  ('Cc1c2c(nn1C)CSCc1cc(n(C)n1)CSc1cc(c3ccccc3c1)OCCCc1c(C(=O)O)n(C)c3c-2c(Cl)ccc13 [AZD5991] + C[C@@H]1COCCN1C2=NC(=NC(=C2)C3(CC3)[S@](=N)(=O)C)C4=C5C=CNC5=NC=C4 [AZD6738] (first compound max 1 µM, 7x7, partner max 10 µM)', 'Bliss excess', -0.0091);

List reported Bliss excess for each of these compounds:
1. Cc1c2c(nn1C)CSCc1cc(n(C)n1)CSc1cc(c3ccccc3c1)OCCCc1c(C(=O)O)n(C)c3c-2c(Cl)ccc13 [AZD5991] + CCN(CCO)CCCOc1ccc2c(Nc3cc(CC(=O)Nc4cccc(F)c4)[nH]n3)ncnc2c1 [AZD2811] (first compound max 1 µM, 7x7, partner max 1 µM)
2. CC1(C)CCC(CN2CCN(c3ccc(C(=O)NS(=O)(=O)c4ccc(NCC5CCOCC5)c([N+](=O)[O-])c4)c(Oc4cnc5[nH]ccc5c4)c3)CC2)=C(c2ccc(Cl)cc2)C1 [Venetoclax] + CN(C)CCCOc1ccc(-c2ccc3ncc4c(c3c2)n(C2CCOCC2)c(=O)n4C)cn1 [AZD0156] (first compound max 1 µM, 7x7, partner max 1 µM)
3. COc1nnc2ccc(N3CCC(c4ccc(OCCN5CCN(C)C(=O)[C@H]5C)cc4)CC3)nn12 [AZD5153] + Cn1cnc2c(F)c(Nc3ccc(Br)cc3Cl)c(C(=O)NOCCO)cc21 [Selumetinib] (first compound max 1 µM, 7x7, partner max 10 µM)

Outgoing:
0.0632
-0.048
0.0319

Would you mind giving Bliss excess for every compound in the list below?
1. N#Cc1cnc(Nc2cc(NC[C@H]3CNCCO3)c(C(F)(F)F)cn2)cn1 [SRA737] + C=CCn1c(=O)c2cnc(Nc3ccc(N4CCN(C)CC4)cc3)nc2n1-c1cccc(C(C)(C)O)n1 [AZD1775] (first compound max 10 µM, partner max 1 µM)
2. CN(CCO)CC[C@H](CSc1ccccc1)Nc1ccc(S(=O)(=O)NC(=O)c2ccc(N3CCC([C@@H](O)c4ccccc4-c4ccc(Cl)cc4)CC3)cc2)cc1S(=O)(=O)C(F)(F)F [AZD4320] + CN(C)CCCOc1ccc(-c2ccc3ncc4c(c3c2)n(C2CCOCC2)c(=O)n4C)cn1 [AZD0156] (first compound max 1 µM, 7x7, partner max 1 µM)

Outgoing:
1. 0.055
2. -0.0185

* * *

tested on: NCI-H661 (Non-Small Cell Lung Carcinoma); assay: combination Emax (second highest fraction inhibited in the dose matrix, 72 h); higher = more inhibition; extreme values may be limits of the assay
Please go through the items and note down their combination Emax.
One number for each entry.

Solved entries:
INSERT INTO results (molecule, parameter, experimental_value) VALUES
  ('Cc1c2c(nn1C)CSCc1cc(n(C)n1)CSc1cc(c3ccccc3c1)OCCCc1c(C(=O)O)n(C)c3c-2c(Cl)ccc13 [AZD5991] + Cn1cnc2c(F)c(Nc3ccc(Br)cc3Cl)c(C(=O)NOCCO)cc21 [Selumetinib] (first compound max 1 µM, 7x7, partner max 3 µM)', 'combination Emax', 0.462),
  ('NC1(C(=O)N[C@@H](CCO)c2ccc(Cl)cc2)CCN(c2ncnc3[nH]ccc23)CC1 [Capivasertib] + CCN(CCO)CCCOc1ccc2c(Nc3cc(CC(=O)Nc4cccc(F)c4)[nH]n3)ncnc2c1 [AZD2811] (first compound max 10 µM, 7x7, partner max 1 µM)', 'combination Emax', 0.36);

Shifting focus to the molecule that follows.
Incoming: Need combination Emax of CN(CCO)CC[C@H](CSc1ccccc1)Nc1ccc(S(=O)(=O)NC(=O)c2ccc(N3CCC([C@@H](O)c4ccccc4-c4ccc(Cl)cc4)CC3)cc2)cc1S(=O)(=O)C(F)(F)F [AZD4320] + C[C@@H]1COCCN1C2=NC(=NC(=C2)C3(CC3)[S@](=N)(=O)C)C4=C5C=CNC5=NC=C4 [AZD6738] (first compound max 1 µM, 7x7, partner max 10 µM) , thanks.
Outgoing: 0.674
